# credit: PubChem BioAssay (EPA / NIEHS)

test_system: Bile acid receptor (Homo sapiens)
assay_text: ATG_IR1_CIS: Attagene CIS-FACTORIAL HepG2 Assay for human Nuclear Receptor Subfamily 1 Group H Member 4 (NR1H4), IR1 submotif (AID 2282946)
settings: IR1 reporter transcription, actives raise or lower the signal
Activity calls are given as the source filed them. The calls were made as follows: active = hit-call score of the fitted dose curve at least 0.9, where 1 is the maximum; inactive = score below 0.9.
Your response should consist of one outcome taken from y for active, n for inactive

Query: recorded result category for CCCSP(=O)(OCC)SCCC in this test n

Hey, what did the test say about CSc1nnc(C(C)(C)C)c(=O)n1N ? n

Fill in: this test's call for CCC(CC)Nc1c([N+](=O)[O-])cc(C)c(C)c1[N+](=O)[O-] is ___ y

Would you mind telling me which call this test gave CCOC(=O)CC(SP(=O)(OC)OC)C(=O)OCC (centres undefined) ? n

// outcome(item) with item = CCCCSP(=O)(SCCCC)SCCCC n

Outcome? CCCCOC(=O)c1ccccc1C(=O)O n

Tell me the assay call for C#CCC1=C(C)C(OC(=O)C2C(C=C(C)C)C2(C)C)CC1=O (centres undefined) please. n

For CCCSP(=O)(OCC)Oc1ccc(Br)cc1Cl (centres undefined) , what call appears in the results of this test? n

State the result this test recorded for FC(F)C(F)(F)OCC(Cn1cncn1)c1ccc(Cl)cc1Cl (centres undefined) . n

Could you kindly confirm the outcome this assay logged for Nc1c(Cl)cc([N+](=O)[O-])cc1Cl ? n

Per the records of this test, what outcome belongs to CCOP(=O)(NC(C)C)Oc1ccc(SC)c(C)c1 (centres undefined) ? n

Could you check what this test reported for CNc1cnn(-c2cccc(C(F)(F)F)c2)c(=O)c1Cl ? n

Which outcome did this test record for the molecule CCCOCC(=Nc1ccc(Cl)cc1C(F)(F)F)n1ccnc1 ? n

Recorded test call requested for Cc1ccn2nc(S(=O)(=O)Nc3c(F)cccc3F)nc2n1 n

Hi team, can someone confirm the assay call for C[Si](Cn1cncn1)(c1ccc(F)cc1)c1ccc(F)cc1 ? y

Which outcome was entered for the molecule COP(=O)(OC)C(O)C(Cl)(Cl)Cl (centres undefined) in this test? n

Please share the test call associated with N#CSCSC#N . n

Please indicate how the test categorized CC(Oc1cccc(Cl)c1)C(=O)O (centres undefined) . n

I'd appreciate the recorded outcome for Nc1nc(N)nc(NC2CC2)n1 from this test. n

So what was the verdict on CCc1cccc(CC)c1N(COC)C(=O)CCl in this test? n

Lab log entry: COc1cccc(C(=O)NN(C(=O)c2cc(C)cc(C)c2)C(C)(C)C)c1C — outcome as called in the assay? n

Per the assay record, what outcome was assigned to CNC(=O)Oc1cccc2c1OC(C)(C)O2 ? n

Hey, what did the test say about CN1COCN(Cc2cnc(Cl)s2)C1=N[N+](=O)[O-] ? n

Entry C=C(C)[C@H]1Cc2c(ccc3c2O[C@@H]2COc4cc(OC)c(OC)cc4[C@@H]2C3=O)O1 : call = ? n
